Tested on: PDE4
assay method text: Inhibition of PDE4 activity (method of Bauer and Schwabe, adapted to microtiter plates)
Type: biochemical
details: inhibitory concentration as -log IC50 (mol/l)
result type: Inhibition of the PDE4 activity, -log IC50
Lab note: jot the number down without any unit.

Some entries whose results are on file:
COc1ccc(C(=O)Nc2c(Cl)cncc2Cl)cc1OC1COCC1OCc1ccccc1 (stereo not shown) [Compound 3] = 8.70
COc1ccc(C(=O)Nc2c(Cl)cncc2Cl)cc1OC1COCC1O (stereo not shown) [Compound 6] = 8.02
COc1ccc(C(=O)Nc2c(Cl)cncc2Cl)cc1OC1COCC1OC (stereo not shown) [Compound 1] = 8.24
COc1ccc(C(=O)Nc2c(Cl)cncc2Cl)c2c1OC1(COCC1OCc1ccccc1)C2 (stereo not shown) [Compound 5] = 8.58
COc1ccc(C(=O)Nc2c(Cl)cncc2Cl)cc1OC1COCC1OCSC (stereo not shown) [Compound 7] = 8.54
CCOC1COCC1Oc1cc(C(=O)Nc2c(Cl)cncc2Cl)ccc1OC (stereo not shown) [Compound 2] = 8.25

Challenge: Item: COc1ccc(C(=O)Nc2c(Cl)cncc2Cl)c2c1OC1(COCC1OC)C2 (stereo not shown) [Compound 4] Test system: PDE4 Read-out: Inhibition of the PDE4 activity, -log IC50 Value: ?
Response given: 8.11
